normalized growth values by entry
assay: chemical genetic growth profiling, strain panel (AID 1159580);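 also: tested at 20 µM; growth read once vehicle control cultures reached saturation at 30 °C; 1 = growth at the plate median or of vehicle wells; lower values mean less growth of the strain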; settings: S. cerevisiae deletion strains, growth OD, locus YPR167C, strain met16, active compounds read low
The campaign covered roughly 5,500 compounds. About 2,000 (36%) were called active. About 18% were inconclusive and are not listed. This is one part of the list.

Compound	normalized growth
COc1ccc(-c2coc3cc(OC)ccc3c2=O)cc1	0.943
Cc1ccc(S(=O)(=O)NC(=O)NN2CCCCCC2)cc1	0.991
CC1COc2c(N3CCN(C)CC3)c(F)cc3c(=O)c(C(=O)O)cn1c23 (configuration not stated)	1.01
COc1ccc([C@H]2Oc3c(I)c(OC)cc(OC)c3C[C@@H]2O)cc1OC	1.04
COc1cc2nc(N(C)CCCNC(=O)C3CCCO3)nc(N)c2cc1OC (configuration not stated)	1
COc1c(N2CCNC(C)C2)c(F)cc2c(=O)c(C(=O)O)cn(C3CC3)c12 (configuration not stated)	0.996
CN(C)CCN(Cc1ccccc1)c1ccccn1	0.973
CC(=O)Oc1cc(OC(C)=O)c2c(c1)O[C@H](c1ccc(OC(C)=O)c(OC(C)=O)c1)[C@H](OC(C)=O)C2	1.04
C[C@H]1COc2c(N3CCN(C)CC3)c(F)cc3c(=O)c(C(=O)O)cn1c23	1.02
COc1ccc(CN(CCN(C)C)c2ccccn2)cc1	0.983
Cc1ccccc1C(OCCN(C)C)c1ccccc1 (configuration not stated)	1
CC1CCc2cc(F)cc3c(=O)c(C(=O)O)cn1c23 (configuration not stated)	0.97
CN(C)CCN(Cc1cccs1)c1ccccn1	1.01
Oc1cc(O)c2c(c1)O[C@H](c1ccc(O)c(O)c1)[C@@H](O)C2	0.975
O=C1NCC2(CCN(CCc3ccccc3)CC2)O1	1
O=C(O[C@@H]1Cc2c(O)cc(O)cc2O[C@@H]1c1ccc(O)c(O)c1)c1cc(O)c(O)c(O)c1	1.03
CN(C)CCOC(c1ccc(Cl)cc1)c1ccccn1 (configuration not stated)	1
COc1cc(OC)c2c(c1)O[C@H](c1cc(OC)c(OC)c(OC)c1)[C@H](OC(=O)c1cc(OC)c(OC)c(OC)c1)C2	1.01
COc1ccc(-c2coc3cc(O)ccc3c2=O)c(OC)c1	1.01
CCn1cc(C(=O)O)c(=O)c2cc(F)c(N3CCNCC3)nc21	1.01
CC(=O)Oc1cc(OC(C)=O)c2c(c1)O[C@H](c1ccc(OC(C)=O)c(OC(C)=O)c1)[C@@H](OC(C)=O)C2	0.978
NCCC(O)C(=O)NC1CC(N)C(OC2OC(CN)C(O)C(O)C2N)C(OC2OC(CO)C(O)C2O)C1O (configuration not stated)	0.994

====

test: chemical genetic growth profiling, strain panel (AID 1159580);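 also: tested at 20 µM; growth read once vehicle control cultures reached saturation at 30 °C; 1 = growth at the plate median or of vehicle wells; lower values mean less growth of the strain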; settings: S. cerevisiae deletion strains, growth OD, locus YKL067W, strain YNK1, active compounds read low
The whole screen tested about 5,500 compounds, of which about 2,000 (36%) were called active. Not shown: some 18% with an inconclusive outcome. The list shows a part of the results.
Reported normalized growth by item:
Value kind: normalized growth

Compound	Observed
CC(C)(C)c1ccc(C(=N)SC(C(=O)C(F)(F)F)c2ccccc2)cc1 (stereo not drawn)	0.951
O=C(Nc1cccc(C(F)(F)F)c1)c1cncc(C#Cc2ccccc2)c1	0.901
CCCN(CCC)C(=S)NC(=O)c1cccc([N+](=O)[O-])c1	0.96

====

// normalized growth lookup, one value per entry
test: chemical genetic growth profiling, strain panel (AID 1159580);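 also: tested at 20 µM; growth read once vehicle control cultures reached saturation at 30 °C; 1 = growth at the plate median or of vehicle wells; lower values mean less growth of the strain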; conditions: S. cerevisiae deletion strains, growth OD, locus YNL298W, strain CLA4, active compounds read low
Among all 5,500 compounds or so, about 2,000 (36%) were called active. Roughly 18% stayed inconclusive and do not appear here. The list shows a part of the results.

Compound	normalized growth
CCC(C)C(=O)O[C@@H]1C[C@@]2(C)[C@H](c3ccoc3)OC(=O)CC23OC2(C)OC34[C@H](OC(=O)C(C)C)[C@@]3(O)[C@@H](OC(=O)C5(C)OC5C)[C@@]5(C)C[C@]3(O)[C@@](C)([C@H]5CC(=O)OC)C14O2 (some centres not stated)	1.02
COC(=O)C[C@H]1C2(C)CC34OC5(C)O[C@@]6([C@H](OC(C)=O)C(OC(C)=O)[C@]7(C)C(/C(=C(/O)C(C)C)C(=O)O[C@H]7c7ccoc7)[C@@]6(O5)[C@H](OC(C)=O)[C@@]3(O)C2OC(=O)C(C)C)[C@]14C (some centres not stated)	0.994

====

normalized growth reference
assay: chemical genetic growth profiling, strain panel (AID 1159580);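 also: tested at 20 µM; growth read once vehicle control cultures reached saturation at 30 °C; 1 = growth at the plate median or of vehicle wells; lower values mean less growth of the strain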; conditions: S. cerevisiae deletion strains, growth OD, locus YOR184W, strain ser1, active compounds read low
In all, about 5,500 compounds went through this assay and about 2,000 (36%) were called active. Inconclusive results (about 18%) are left out. The list shows a part of the results.

Compound	normalized growth
COc1ccc(CN(CCN(C)C)c2ccccn2)cc1	1
COc1ccc2c(c1)OC/C(=C/c1ccc(OC)c(OC)c1)C2=O	0.805
O=C(Oc1cc(OC(=O)c2ccccc2)c2c(c1)O[C@H](c1ccc(OC(=O)c3ccccc3)c(OC(=O)c3ccccc3)c1)[C@@H](OC(=O)c1ccccc1)C2)c1ccccc1	1.05
C=CCc1ccc(OC(=O)c2ccccc2)c(OC)c1	0.571
CCCCCCCCC(=O)NCc1ccc(O)c(OC)c1	0.939
O=C(O)CCCc1ccccc1	0.988
COc1cc(CNC(=O)CCCC/C=C/C(C)C)ccc1O	0.995
CC(=O)Oc1cc(OC(C)=O)c2c(c1)O[C@H](c1ccc(OC(C)=O)c(OC(C)=O)c1)[C@@H](OC(C)=O)C2	0.986
CC(=O)S[C@@H]1CC2=CC(=O)CC[C@]2(C)[C@H]2CC[C@@]3(C)[C@@H](CC[C@@]34CCC(=O)O4)C12 (stereo partly specified)	1.03
CC[C@@]1(O)C[C@H](O)c2c(cc3c(c2O)C(=O)c2c(O)ccc(O)c2C3=O)[C@H]1C(=O)OC	0.426
O=S(=O)(O)CCS	0.983
Nc1nc(=S)c2[nH]cnc2[nH]1	1.01
CN1C2C[C@H](OC(=O)[C@H](CO)c3ccccc3)C[C@H]1[C@@H](O)C2	1.02
CCC1(O)CC(OC2CC(N(C)C)C(OC3CC(O)C(OC4CCC(=O)C(C)O4)C(C)O3)C(C)O2)c2c(cc3c(c2O)C(=O)c2c(O)cccc2C3=O)C1C(=O)OC (stereo unspecified)	0.982
C[C@]12CCC(=O)C=C1C=CC1C2CC[C@@]2(C)C1CC[C@@]21CCC(=O)O1 (stereo partly specified)	0.724
CC[C@H]1OC(=O)[C@H](C)[C@@H](O[C@H]2C[C@@](C)(OC)[C@@H](O)[C@H](C)O2)[C@H](C)[C@@H](O[C@@H]2O[C@H](C)C[C@H](N(C)C)[C@H]2O)[C@](C)(OC)C[C@@H](C)C(=O)[C@H](C)[C@@H](O)[C@]1(C)O	0.991
N[C@@H](Cc1ccc(N(CCCl)CCCl)cc1)C(=O)O	0.96
NS(=O)(=O)c1cc2c(cc1Cl)NC=NS2(=O)=O	1
CN(C)CCN(Cc1ccccc1)c1ccccn1	1
COC(=O)/C=C/C(C)=C/C=C/C(C)=C/C=C/C=C(C)/C=C/C=C(C)/C=C/C(=O)O	1.01
CCN1CCCC(OC(=O)C(c2ccccc2)c2ccccc2)C1 (stereo unspecified)	1.04
c1ccc2c(c1)sc1ccccc12	0.676
CN1C2CCC1CC(OC(c1ccccc1)c1ccccc1)C2 (stereo unspecified)	0.774
Cc1ccc(S(=O)(=O)NC(=O)NN2CCCCCC2)cc1	1
CC[C@@]1(O)C[C@H](O[C@H]2C[C@H](N(C)C)[C@H](O)[C@H](C)O2)c2c(cc3c(c2O)C(=O)c2c(O)ccc(O)c2C3=O)[C@H]1C(=O)OC	0.0852
c1ccc2c(c1)CCCC2C1=NCCN1 (stereo unspecified)	0.99
COc1ccc2c(c1)OC/C(=C\c1ccc(OC)c(O)c1)C2=O	0.472
COc1cc(OC)c2c(c1)O[C@H](c1cc(OC)c(OC)c(OC)c1)[C@H](OC(=O)c1cc(OC)c(OC)c(OC)c1)C2	0.987
C=C1C2CC[C@@]3(C)[C@H](c4ccoc4)OC(=O)C[C@]13O[C@H]1CC(=O)C(C)(C)[C@H](C(OC(C)=O)C(=O)OC)[C@@]21C (stereo partly specified)	0.972
O=C1CCC(N2C(=O)c3ccccc3C2=O)C(=O)N1 (stereo unspecified)	0.981
O=C(O)CCCc1ccc(N(CCCl)CCCl)cc1	0.976
CN1C2CCC1CC(OC(c1ccccc1)c1ccccc1N)C2 (stereo unspecified)	1.04
CN(C)CCN(Cc1cccs1)c1ccccn1	1.01
O=C(O[C@@H]1Cc2c(O)cc(O)cc2O[C@@H]1c1ccc(O)c(O)c1)c1cc(O)c(O)c(O)c1	0.969
CCCCC[C@H]1C(=O)O[C@H](C)[C@H](NC(=O)c2cccc(NC=O)c2O)C(=O)O[C@@H](C)[C@@H]1OC(=O)CC(C)C	0.674
C=CCc1ccc(O)c(OC)c1	0.973
O=C(O)/C=C/c1ccc(O)c(O)c1	1
O=C1C(Cl)=C(Cl)C(=O)C(Cl)=C1Cl	0.195
NCCc1cnc[nH]1	1.02
NCCCS(=O)(=O)O	0.983
CCCCNC(=O)NS(=O)(=O)c1ccc(C)cc1	1
